Assay: chemical genetic growth profiling, strain panel (AID 1159580);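 further: tested at 20 µM; growth read once vehicle control cultures reached saturation at 30 °C; 1 = growth at the plate median or of vehicle wells; lower values mean less growth of the strain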
Details: S. cerevisiae deletion strains, growth OD, locus YLR370C, strain arc18, hits give low values
Screen size: about 5,500 compounds; about 2,000 (36%) were called active. About 18% were inconclusive and are not listed. Some of the results follow.
Recorded metric: normalized growth
# output: bare number, no unit

Qu. Which normalized growth value is on record for COc1ccc(C(Cl)=C(c2ccc(OC)cc2)c2ccc(OC)cc2)cc1 ?
Ans. 0.972

Qu. Would you kindly repeat that for O=C1C=CC2=C3c4cc(O)c(O)cc4C[C@@]3(O)COC2=C1 ?
Ans. 0.987

Qu. Would you kindly repeat that for CC(C)(C)NC[C@@H](O)COc1nsnc1N1CCOCC1 ?
Ans. 1.02

Qu. Would you kindly repeat that for NCC(O)c1ccc(O)cc1 (configuration not stated) ?
Ans. 1.01

Qu. Would you kindly repeat that for C=C(C)[C@H]1CC=C(C(=O)O)CC1 ?
Ans. 0.989

Qu. Would you kindly repeat that for O=[N+]([O-])c1cc(O)c(O)c([N+](=O)[O-])c1 ?
Ans. 1.01

Qu. Would you kindly repeat that for O=[N+]([O-])c1cc([As](=O)(O)O)ccc1O ?
Ans. 0.957

Qu. Would you kindly repeat that for OC[C@@H](O)[C@@H](O[C@@H]1O[C@H](CO)[C@@H](O)[C@H](O)[C@H]1O)[C@H](O)[C@@H](O)CO ?
Ans. 0.996

Qu. Would you kindly repeat that for O=C1C=CC2=C3c4cc(O)c(O)cc4CC3(O)COC2=C1O (configuration not stated) ?
Ans. 0.977

Qu. Would you kindly repeat that for CC(=O)Nc1cc([As](=O)(O)O)ccc1O ?
Ans. 1.01

Qu. Would you kindly repeat that for O=C(O)CCCCC1CCSS1 (configuration not stated) ?
Ans. 0.986

Qu. Would you kindly repeat that for Nc1ccc(S(=O)(=O)Nc2ccccn2)cc1 ?
Ans. 1.01

###

Test: chemical genetic growth profiling, strain panel (AID 1159580);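 further: tested at 20 µM; growth read once vehicle control cultures reached saturation at 30 °C; 1 = growth at the plate median or of vehicle wells; lower values mean less growth of the strain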
Details: S. cerevisiae deletion strains, growth OD, locus YHR079C, strain IRE1
Screen size: about 5,500 compounds; about 2,000 (36%) were called active. About 18% were inconclusive and are not listed. No stated cut-off is given here; in the data, active means normalized growth mostly below about 0.91 (no sharp cut-off); inconclusive means no clear call, values can overlap the other calls; inactive means mostly above about 0.92. The list shows a part of the results.
Just give me one of these, please: active, inactive

Qu. Each molecule tested received a call. Report the one for CSc1ccc(/C=C(\C)[N+](=O)[O-])cc1 .
Ans. active

Qu. Would you kindly repeat that for CO[C@H]1/C=C/O[C@@]2(C)Oc3c(C)c(O)c4c(O)c(c5c(nc6cc(C)ccn65)c4c3C2=O)NC(=O)/C(C)=C\C=C\[C@H](C)[C@H](O)[C@@H](C)C(O)[C@@H](C)[C@H](OC(C)=O)[C@@H]1C (stereo not given in full) ?
Ans. inactive

Qu. Would you kindly repeat that for CO[C@H]1/C=C/O[C@@]2(C)Oc3c(C)c(O)c4c(O)c(c(/C=N/N5CCN(C)CC5)c(O)c4c3C2=O)NC(=O)/C(C)=C\C=C\C(C)[C@H](O)[C@@H](C)[C@@H](O)[C@@H](C)[C@@H](OC(C)=O)[C@@H]1C (stereo not given in full) ?
Ans. inactive

Qu. Would you kindly repeat that for O=[N+]([O-])/C=C/c1ccc(F)cc1 ?
Ans. active

Qu. Would you kindly repeat that for CC1(C)C(=O)C=C[C@@]2(C)C1=C(O)C(=O)[C@]1(C)C2CC[C@@]2(C)[C@H](c3ccoc3)C[C@H]3O[C@]321 (stereo not given in full) ?
Ans. active

Qu. Would you kindly repeat that for CCN(CC)CCNC(C(=O)OCCC(C)C)c1ccccc1 (stereo not given) ?
Ans. inactive

Qu. Would you kindly repeat that for O=[N+]([O-])c1cc([As](=O)(O)O)ccc1O ?
Ans. inactive

Qu. Would you kindly repeat that for CCCC(C)C1(CC)C(=O)N=C(S)NC1=O (stereo not given) ?
Ans. inactive

Qu. Would you kindly repeat that for CN/C(=C\[N+](=O)[O-])NCCSCc1ccc(CN(C)C)o1 ?
Ans. inactive

Qu. Would you kindly repeat that for CCCC(C)C1(CC)C(=O)NC(=O)NC1=O (stereo not given) ?
Ans. inactive

Qu. Would you kindly repeat that for Cc1cc(Br)ccc1-n1c(Sc2c([N+](=O)[O-])cc(C(F)(F)F)cc2[N+](=O)[O-])nc2ccccc2c1=O ?
Ans. inactive

Qu. Would you kindly repeat that for CC(=O)c1c(O)c(C)c(O)c2c1OC1=CC(=O)C(C(C)=O)C(=O)C12C (stereo not given) ?
Ans. active

Qu. Would you kindly repeat that for Nc1ccc([As](=O)(O)O)cc1 ?
Ans. inactive

Qu. Would you kindly repeat that for O=[N+]([O-])c1ccccc1CS(=O)(=O)c1nc2ccccc2s1 ?
Ans. inactive

Qu. Would you kindly repeat that for COc1ccc(C(=O)CSC2=NCCc3ccccc32)cc1 ?
Ans. inactive

Qu. Would you kindly repeat that for CC(=O)Nc1ccc([N+](=O)[O-])cc1[N+](=O)[O-] ?
Ans. active

Qu. Would you kindly repeat that for C/C=C/c1ccc2c(c1)OCO2 ?
Ans. inactive

Qu. Would you kindly repeat that for O=C(NCCSCc1cccc(C(F)(F)F)c1)Nc1cccc(C(F)(F)F)c1 ?
Ans. inactive

Qu. Would you kindly repeat that for COC(=O)C1=C(C)NC(C)=C(C(=O)OC)C1c1ccc(Cl)cc1Cl ?
Ans. inactive

Qu. Would you kindly repeat that for CC(=O)Nc1cc([As](=O)(O)O)ccc1O ?
Ans. inactive

###

Assay: chemical genetic growth profiling, strain panel (AID 1159580);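 further: tested at 20 µM; growth read once vehicle control cultures reached saturation at 30 °C; 1 = growth at the plate median or of vehicle wells; lower values mean less growth of the strain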
Conditions: S. cerevisiae deletion strains, growth OD, locus YHR142W, strain chs7, hits give low values
Hit rate of the full screen: of about 5,500 compounds, about 2,000 (36%) were called active. Another 18% or so got no clear call; they are omitted. The list shows a part of the results.
Binary call on normalized growth with cut-off 1: strictly below means class 1, and equality or higher means class 0.

Qu. Is 1 strictly greater than the compound's reported normalized growth? compound: CO[C@H]1/C=C/O[C@@]2(C)Oc3c(C)c(O)c4c(O)c(c(/C=N/N5CCN(C)CC5)c(O)c4c3C2=O)NC(=O)/C(C)=C\C=C\C(C)[C@H](O)[C@@H](C)[C@@H](O)[C@@H](C)[C@@H](OC(C)=O)[C@@H]1C (stereo not given in full)
Ans. class 0

Qu. Would you kindly repeat that for Oc1c(Cl)cc(Cl)c2cccnc12 ?
Ans. class 1

Qu. Would you kindly repeat that for O=[N+]([O-])c1ccc(O)c([N+](=O)[O-])c1 ?
Ans. class 1

Qu. Would you kindly repeat that for O=C1C=CC2=C3c4cc(O)c(O)cc4C[C@@]3(O)COC2=C1 ?
Ans. class 1

Qu. Would you kindly repeat that for CCCCC(CC)CN1CN(CC(CC)CCCC)CC(C)(N)C1 (stereo not given) ?
Ans. class 1

Qu. Would you kindly repeat that for Cc1ccc2c(Cl)cc(Cl)c(O)c2n1 ?
Ans. class 0

Qu. Would you kindly repeat that for O=[N+]([O-])c1cc([As](=O)(O)O)ccc1O ?
Ans. class 1

Qu. Would you kindly repeat that for O=C(O)c1ccccc1Nc1cccc(C(F)(F)F)c1 ?
Ans. class 1

Qu. Would you kindly repeat that for CC(C)=CCC[C@](C)(O)C1CC=C(C)CC1 (stereo not given in full) ?
Ans. class 1

Qu. Would you kindly repeat that for NCCCC[C@H](N[C@@H](CCc1ccccc1)C(=O)O)C(=O)N1CCC[C@H]1C(=O)O ?
Ans. class 0

Qu. Would you kindly repeat that for CC(C)NCC(O)c1ccc(O)c(O)c1 (stereo not given) ?
Ans. class 1

Qu. Would you kindly repeat that for CC(=O)c1c(O)c(C)c(O)c2c1OC1=CC(=O)C(C(C)=O)C(=O)C12C (stereo not given) ?
Ans. class 1

Qu. Would you kindly repeat that for CC(=O)Oc1ccc(Cl)c2cccnc12 ?
Ans. class 1

Qu. Would you kindly repeat that for Oc1c(Br)cc(Br)c2cccnc12 ?
Ans. class 1

Qu. Would you kindly repeat that for CC(=O)Nc1cc([As](=O)(O)O)ccc1O ?
Ans. class 0

Qu. Would you kindly repeat that for Cc1c(Nc2ncccc2C(=O)O)cccc1C(F)(F)F ?
Ans. class 1

Qu. Would you kindly repeat that for C=C[C@@H](C1=CC(=O)C(OC)=C(OC)C1=O)c1ccccc1 ?
Ans. class 1

Qu. Would you kindly repeat that for CC(C)(C)NC[C@@H](O)COc1nsnc1N1CCOCC1 ?
Ans. class 0

Qu. Would you kindly repeat that for O=C1C=CC2=C3c4cc(O)c(O)cc4CC3(O)COC2=C1O (stereo not given) ?
Ans. class 1

Qu. Would you kindly repeat that for C=CC(C)(O)CC/C=C(\C)CCC=C(C)C (stereo not given) ?
Ans. class 1

Qu. Would you kindly repeat that for CO[C@H]1/C=C/O[C@@]2(C)Oc3c(C)c(O)c4c(O)c(c5c(nc6cc(C)ccn65)c4c3C2=O)NC(=O)/C(C)=C\C=C\[C@H](C)[C@H](O)[C@@H](C)C(O)[C@@H](C)[C@H](OC(C)=O)[C@@H]1C (stereo not given in full) ?
Ans. class 0

Qu. Would you kindly repeat that for Cc1occc(=O)c1O ?
Ans. class 1

Qu. Would you kindly repeat that for C/C=C/c1ccc2c(c1)OCO2 ?
Ans. class 0

Qu. Would you kindly repeat that for Oc1ccc(Cl)c2cccnc12 ?
Ans. class 1

Qu. Would you kindly repeat that for CCC(Cc1c(I)cc(I)c(N)c1I)C(=O)O (stereo not given) ?
Ans. class 1

Qu. Would you kindly repeat that for CC1(C)C(=O)C=C[C@@]2(C)C1=C(O)C(=O)[C@]1(C)C2CC[C@@]2(C)[C@H](c3ccoc3)C[C@H]3O[C@]321 (stereo not given in full) ?
Ans. class 1

Qu. Would you kindly repeat that for OC[C@@H]1CCCN2CCCC[C@H]12 ?
Ans. class 0
